Value source: patent US20240067734A1

Target: T1, his avi huNKG2D ECD (human, biotinylated at the avi-tag (in the ELISA))
T1 construct: Human NKG2D ECD with N-terminal H6-avi tags, forms non-covalent dimers; also called recombinant human NKG2D
T1 chain: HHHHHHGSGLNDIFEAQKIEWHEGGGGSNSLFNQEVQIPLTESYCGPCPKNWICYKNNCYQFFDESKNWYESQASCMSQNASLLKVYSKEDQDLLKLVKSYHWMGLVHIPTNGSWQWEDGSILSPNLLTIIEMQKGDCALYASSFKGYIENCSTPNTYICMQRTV
Test: ELISA; biotinylated antigen on streptavidin plate
OBSERVED_PROPERTY: OD max (OD)

INSERT INTO assay_data (binder, observed_property, units_text, experimental_result) VALUES
  ('anti-NKG2D antibody clone 013 (antibody, V domains shown, From transgenic rabbits) VH: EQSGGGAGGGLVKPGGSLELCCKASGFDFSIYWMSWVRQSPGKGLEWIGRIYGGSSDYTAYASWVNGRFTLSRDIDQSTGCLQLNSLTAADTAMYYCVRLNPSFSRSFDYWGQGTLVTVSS VL: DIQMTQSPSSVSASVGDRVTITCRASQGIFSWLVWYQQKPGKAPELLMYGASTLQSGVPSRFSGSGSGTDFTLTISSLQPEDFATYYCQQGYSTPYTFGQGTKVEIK', 'OD max', 'OD', 2.5);
